Provenance of the data: patent US20070244297A1

system: recombinant human neuronal calcium channel α1B-2α2bβ1-2 (human)
assaySummary: 125I-ω-CgTx GVIA saturation binding to transiently transfected HEK293 cells
reportedProperty: Kd (nM)
The reply should be a number in nM, with the unit left off.

**Query** Answer with reported Kd of CKSPGSSCSPTSYNCCRSCNPYTKRCYG (modifications not checked) [125I-ω-CgTx GVIA, P01522 46-73]
**Result** 0.053
